# assay-summary: S6 kinase pathway phospho-S6 level changes – cell-based, A549, cytoblot, luminescence, serum-stimulated, primary screen (AID 1158);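 also: serum-stimulated A549 lung adenocarcinoma cells; signal is phosphorylated S6 detected by cytoblot immunostaining with HRP secondary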
# experimental-setup: 5 h, higher = more signal
# key: entry, value: z-score

[
  {
    "molecule": "C[N+](C)(C)CCCC[C@@H]1NC(=O)[C@@H]2C[C@H](C(=O)NCCCCCN)[C@H](c3ccc(O)cc3)N2C1=O",
    "z-score": 0.612
  },
  {
    "molecule": "COc1ccc([Si](C)(C)[C@@H]2[C@@H](CCn3cc([C@H](O)c4ccccc4)nn3)O[C@]3(C(=O)N(Cc4cccc(N5CCC5=O)c4)c4ccccc43)[C@H]2C)cc1",
    "z-score": 0.135
  },
  {
    "molecule": "CC(C)Cc1ccc(CN2CC[C@@H](N)C2)cc1",
    "z-score": 0.412
  },
  {
    "molecule": "CO[C@H]1O[C@H](CO)[C@@H](OC(=O)Nc2cccc(F)c2)[C@H](OC(=O)Nc2ccccc2)[C@H]1OC(=O)Nc1ccccc1",
    "z-score": 0.627
  },
  {
    "molecule": "C#CCN1[C@H](/C=C/C2CC2)[C@H](Cc2ccccc2)OC(=O)[C@@H]1Cc1ccccc1",
    "z-score": 0.0807
  },
  {
    "molecule": "COCC(=C=CC[C@H](O)c1ccccc1OCCO)CCO",
    "z-score": -0.509
  },
  {
    "molecule": "CC(C)NC(=O)[C@@H]1c2ccccc2C(=O)N(C(C)C)[C@H]1c1ccc(CO)cc1",
    "z-score": 0.0843
  },
  {
    "molecule": "CC[C@@H]1C=C(C(=O)O)[C@H](c2ccc(C)cc2)N1S(=O)(=O)c1ccc(C)cc1",
    "z-score": -0.362
  },
  {
    "molecule": "COc1ccc([C@H]2OC[C@@H]3CCC(=O)N32)cc1",
    "z-score": 0.0166
  },
  {
    "molecule": "O=C(O)[C@H]1C[C@H]2C(=O)N3CCC[C@H]3C(=O)N2[C@H]1c1ccc(O)cc1",
    "z-score": -0.275
  },
  {
    "molecule": "C=CCN(Cc1ccccc1)C(=O)C(c1cccs1)N(C(=O)/C=C\\C(=O)O)c1ccc(CCOCCO)cc1 (stereo not drawn)",
    "z-score": 1.77
  },
  {
    "molecule": "COc1ccc(CCNC(=O)[C@@]2(C)c3ccccc3C(=O)N(c3ccc(C)cn3)[C@H]2c2ccc(CO)cc2)cc1",
    "z-score": -0.0316
  },
  {
    "molecule": "OB1C=CCC(CCc2ccccc2)O1 (stereo not drawn)",
    "z-score": 0.946
  },
  {
    "molecule": "C=C(/C(=C/C[C@H](OC(=O)c1ccncc1)c1ccc(OCCO)cc1)c1cc(C(=O)OC)ccc1OC)C(C)C",
    "z-score": 0.622
  },
  {
    "molecule": "O=C(O)[C@@]1(CCS(=O)(=O)c2ccccc2)N=C(c2ccc(OCCCO)cc2)O[C@H]1c1ccccc1",
    "z-score": -0.238
  },
  {
    "molecule": "COC(=O)[C@@]1(Cc2ccc(OC)cc2)[C@H]2c3cc(C(=O)N4CCCC4)n(CCCNc4ncc(C(F)(F)F)cc4Cl)c3C[C@H]2CN1C(=O)c1ccccc1",
    "z-score": -0.0195
  },
  {
    "molecule": "C=C(CCCC)C(=O)CC[C@H](OC(=O)c1cccnc1)c1ccc(OCCO)cc1",
    "z-score": 0.178
  },
  {
    "molecule": "COC(=O)c1c(CC[C@@H](CO)NC(=O)NCCc2c[nH]c3ccccc23)oc(C(=O)Cc2ccccc2)c1C(=O)OC",
    "z-score": 0.814
  }
]

---

# tested-target: Focal adhesion kinase 1 (Homo sapiens) (UniProt Q05397)
# Sequence (Q05397 whole entry, looked up): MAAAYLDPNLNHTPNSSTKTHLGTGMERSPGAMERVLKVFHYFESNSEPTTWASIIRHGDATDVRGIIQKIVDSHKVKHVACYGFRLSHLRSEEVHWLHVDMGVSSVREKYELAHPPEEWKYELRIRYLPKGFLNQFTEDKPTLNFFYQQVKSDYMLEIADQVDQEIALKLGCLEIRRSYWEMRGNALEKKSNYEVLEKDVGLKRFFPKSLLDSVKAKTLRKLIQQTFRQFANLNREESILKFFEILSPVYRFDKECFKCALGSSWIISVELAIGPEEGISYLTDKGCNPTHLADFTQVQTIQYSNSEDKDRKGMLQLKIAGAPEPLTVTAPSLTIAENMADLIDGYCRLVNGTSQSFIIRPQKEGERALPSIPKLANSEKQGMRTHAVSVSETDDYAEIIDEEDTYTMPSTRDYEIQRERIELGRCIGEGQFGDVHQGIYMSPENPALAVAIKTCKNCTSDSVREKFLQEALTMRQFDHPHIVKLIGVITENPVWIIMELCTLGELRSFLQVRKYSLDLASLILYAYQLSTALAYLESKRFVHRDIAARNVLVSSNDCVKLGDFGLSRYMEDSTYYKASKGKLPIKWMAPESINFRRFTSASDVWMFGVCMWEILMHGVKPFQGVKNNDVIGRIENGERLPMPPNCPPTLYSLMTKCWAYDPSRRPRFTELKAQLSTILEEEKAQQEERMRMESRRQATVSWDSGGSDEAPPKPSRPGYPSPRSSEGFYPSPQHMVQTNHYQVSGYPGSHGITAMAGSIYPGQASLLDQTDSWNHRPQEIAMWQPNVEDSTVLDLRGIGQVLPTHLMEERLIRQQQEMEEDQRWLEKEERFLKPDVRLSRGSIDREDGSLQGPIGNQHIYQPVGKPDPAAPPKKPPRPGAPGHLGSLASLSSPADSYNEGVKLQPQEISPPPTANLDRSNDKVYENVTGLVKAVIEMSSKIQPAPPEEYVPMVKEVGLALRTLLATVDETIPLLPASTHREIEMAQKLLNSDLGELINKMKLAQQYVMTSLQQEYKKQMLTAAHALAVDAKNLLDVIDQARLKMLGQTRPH
# assay-summary: PTK2 protein binding on printed compound slides – biochemical, small-molecule microarray, 635/667 nm fluorescence, BSA, DTT, primary screen (AID 1130);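 also: composite of spot emission at 667 nm and signal to noise over triplicate slides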
# experimental-setup: 635 nm fluorescence, higher = more signal
reported-metric: composite z-score

[
  {
    "compound": "C#CCN1[C@@H](Cc2ccc(O)cc2)C(=O)O[C@H](Cc2ccccc2)[C@@H]1/C=C/C1CC1",
    "test-value": -0.102
  },
  {
    "compound": "CC#CC(=O)Oc1ccc(Br)cc1C=CC(=O)OCC",
    "test-value": 0.167
  },
  {
    "compound": "O=C1C2C=CC(C(O)c3ccc4c(c3)OCO4)N(Nc3ccc([N+](=O)[O-])cc3)C2C(=O)N1c1ccccc1 (centres undefined)",
    "test-value": -0.0123
  },
  {
    "compound": "CS(=O)(=O)CCOC(=O)C1=CC(CCCO)=CC(c2ccc(CN3CCCC3)cc2)N(Cc2cccc(OC(F)(F)F)c2)C=C1C(=O)OCCS(C)(=O)=O (centres undefined)",
    "test-value": 0.366
  },
  {
    "compound": "COc1ccc(CCNC(=O)[C@@]2(c3ccc([N+](=O)[O-])cc3)CC(=O)N(CC34CC5CC(CC(C5)C3)C4)[C@@H]2c2ccc(CO)cc2I)cc1",
    "test-value": 0.458
  },
  {
    "compound": "O=C1C2C=CC(C(O)c3ccc(F)cc3)N(Nc3ccc([N+](=O)[O-])cc3)C2C(=O)N1c1ccccc1 (centres undefined)",
    "test-value": 0.789
  },
  {
    "compound": "C#CCOc1ccc(C[C@@H](C(=O)OC)N(CC#C)[C@@H](/C=C/C2CC2)[C@H](O)Cc2ccccc2)cc1",
    "test-value": 0.0472
  },
  {
    "compound": "O[C@@H](Cc1ccccc1)[C@@H](/C=C/C1CC1)NCc1cccc(Cl)c1",
    "test-value": 0.314
  },
  {
    "compound": "O=C1O[C@H](c2ccccc2)[C@H](c2ccccc2)N2[C@H]1[C@@H](C(=O)NC[C@H](O)c1ccccc1)[C@]1(C(=O)Nc3ccccc31)[C@H]2c1ccc(O)cc1",
    "test-value": 0.223
  },
  {
    "compound": "COCCOC(=O)N1C(=O)[C@@]2(c3cc(C#CC4=CCCCC4)ccc31)[C@H](C(N)=O)[C@H]1C(=O)O[C@H](c3ccccc3)[C@H](c3ccccc3)N1[C@@H]2c1ccc(O)cc1",
    "test-value": 0.671
  },
  {
    "compound": "NC(=O)NCC#Cc1ccc2c(c1)[C@]1(C(=O)N2)[C@H](C(=O)O)[C@H]2C(=O)O[C@H](c3ccccc3)[C@H](c3ccccc3)N2[C@@H]1c1ccc(O)cc1",
    "test-value": 0.06
  },
  {
    "compound": "CC(C)[Si](C#CCCCC#N)(O[C@H](c1ccccc1)c1cn(Cc2cccc(Cl)c2)nn1)C(C)C",
    "test-value": -0.213
  },
  {
    "compound": "COc1ccc(NC(=O)O[C@H]2[C@H](OC(=O)c3cc4ccccc4[nH]3)[C@@H](OC(=O)c3cc4ccccc4[nH]3)[C@@H](OC)O[C@@H]2CO)cc1",
    "test-value": 0.448
  },
  {
    "compound": "COCCCNC(=O)[C@@H]1c2ccccc2C(=O)N(Cc2ccccc2OC)[C@H]1c1ccc(CO)cc1",
    "test-value": 0.503
  },
  {
    "compound": "COc1ccc([Si](C)(C)[C@@H]2[C@@H](CC(=O)N3CCC[C@H]3CO)O[C@]3(C(=O)N(Cc4cccc(I)c4)c4ccccc43)[C@H]2C)cc1",
    "test-value": -0.204
  },
  {
    "compound": "O=C1C[C@@](C(=O)NCc2ccccc2)(c2ccc([N+](=O)[O-])cc2)[C@@H](c2ccc(CO)cc2)N1CC12CC3CC(CC(C3)C1)C2",
    "test-value": 1.42
  },
  {
    "compound": "CN(C)CCCC[C@@H]1NC(=O)[C@H]2C[C@@H](C(=O)NCCCCCN)[C@@H](c3cccc(OCCO)c3)N2C1=O",
    "test-value": 0.297
  },
  {
    "compound": "COCCCNC(=O)[C@@]1(Cc2ccccc2)N=C(c2ccc(OCCCO)cc2)O[C@H]1c1ccccc1CN=[N+]=[N-]",
    "test-value": 0.944
  },
  {
    "compound": "COC(=O)[C@@]1(Cc2ccccc2)[C@H]2c3cc(C(=O)N(C)C)n(CCc4c[nH]c5ccc(O)cc45)c3C[C@H]2CN1C(=O)c1ccccc1",
    "test-value": 0.772
  }
]

---

# assay-summary: hepatitis C replication reporter changes, two-sided – Huh7 cells, luciferase reporter, HCV replication inhibitor project, primary screen (AID 1109);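 also: huh7 hepatoma cells harbouring a luciferase neomycin HCV replicon reporter; luciferase luminescence as measure of HCV replicon replication; test concentration not given here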
# experimental-setup: Huh7 HCV replicon luciferase reporter, 48 h; higher = more signal

[
  {
    "molecule": "C=CCNC(=O)[C@H]1[C@@H]2C(=O)O[C@@H](c3ccccc3)[C@@H](c3ccccc3)N2[C@@H](c2ccc(O)cc2)[C@]12C(=O)Nc1ccc(C#CCCO)cc12",
    "z-score": 0.142
  },
  {
    "molecule": "CC(C)C(=C=CC[C@H](O)c1ccc(CO)o1)CCO",
    "z-score": -1.12
  },
  {
    "molecule": "O=C1C2C=CC(C(O)c3cc(C(F)(F)F)cc(C(F)(F)F)c3)N(Nc3ccccc3)C2C(=O)N1c1ccccc1 (centres undefined)",
    "z-score": -0.761
  },
  {
    "molecule": "C=CC[C@@]1(C(=O)N2CCCCC2)N=C(c2ccc(OCCCO)cc2)O[C@@H]1c1ccccc1CN=[N+]=[N-]",
    "z-score": -2.39
  }
]
